# System: NCIH929 (MM)
# procedure summary: Oncotest inhibition of viability, NCIH929
# Format: cell-based
# experimental parameters: Homo sapiens, NCI-H929; MM cell line NCIH929; read-out: IC50 range
pIC50: −log10 of the molar value.
recorded metric: pIC50

# input What does the record list as pIC50 for COC(=O)c1c(-c2c(F)cccc2Cl)noc1-c1cnn(-c2cccc(Cl)c2)c1C(F)(F)F [Example 1] ?
# output > 8.00

###

# Test system: prostate cancer cell line LNCAP
recorded metric: GI50

# input What does the record list as GI50 for COC(=O)c1c(-c2c(F)cccc2Cl)noc1-c1cnn(-c2cccc(Cl)c2)c1C(F)(F)F [Example 1] ?
# output 0.025 to 0.1 µM

# input What does the record list as GI50 for CC(=O)O[C@H]1C(=O)[C@@]2(C)[C@H]([C@H](OC(=O)c3ccccc3)[C@]3(O)C[C@H](OC(=O)[C@H](O)[C@@H](NC(=O)c4ccccc4)c4ccccc4)C(C)=C1C3(C)C)[C@]1(OC(C)=O)CO[C@@H]1C[C@@H]2O [paclitaxel, reference compound] ?
# output < 0.025 µM

# input What does the record list as GI50 for CNC(=O)c1ccc(N2C(=S)N(c3ccc(C#N)c(C(F)(F)F)c3)C(=O)C2(C)C)cc1F [enzalutamide, reference compound] ?
# output 0.1 to 5 µM

# input What does the record list as GI50 for CC(C)(O)CCn1ncc(-c2onc(-c3c(F)cccc3Cl)c2-c2ncccn2)c1C(F)(F)F [2/8] ?
# output 0.1 to 5 µM

Attention now shifts to the item below.
# input What does the record list as GI50 for Fc1cccc(Cl)c1-c1noc(-c2cnn(-c3cccc(Cl)c3)c2C(F)(F)F)c1-c1nccs1 [Example 1/1] ?
# output < 0.025 µM

###

# System: full length AR (AR-FL) mRNA
# procedure summary: Androgen receptor RNA level expression (qRT-PCR) in 22Rv1: AR-FL
# Type: cell-based
# experimental parameters: Homo sapiens; 22Rv1, 1 μM, 48 h; normalized to untreated control (vehicle/DMSO)
recorded metric: mrna remaining at 1 µM (%)
Numbers only, in %.

# input What does the record list as mrna remaining at 1 µM for C[C@]1(O)C[C@@H](n2ncc(-c3onc(-c4c(F)cccc4Cl)c3-c3ccncn3)c2C(F)(F)F)C1 [2/4] ?
# output 43.5

# input What does the record list as mrna remaining at 1 µM for CC(C)(O)CCn1ncc(-c2onc(-c3c(F)cccc3Cl)c2-c2ncccn2)c1C(F)F [Example 1/2] ?
# output 52.4

# input What does the record list as mrna remaining at 1 µM for C[C@H](O)Cn1ncc(-c2onc(-c3cccc(C(=O)N4CCCC4)c3Cl)c2-c2ccncn2)c1C(F)(F)F [2/3] ?
# output 43.4

For every item below, please supply its mrna remaining at 1 µM.
1. COC(=O)c1c(-c2c(F)cccc2Cl)noc1-c1cnn([C@H]2C[C@@](C)(O)C2)c1C(F)(F)F [Example 2/2]
2. CCOC(=O)c1c(-c2cccc(OC)c2Cl)noc1-c1cnn(CCC(C)(C)O)c1C(F)(F)F [2/10]
3. C[C@H](O)Cn1ncc(-c2onc(-c3c(F)cccc3Cl)c2-c2nccs2)c1C(F)(F)F [Example 2/1]
4. CC(C)(O)CCn1ncc(-c2onc(-c3cccc(OCCN4CCOCC4)c3Cl)c2-c2ncccn2)c1C(F)(F)F [2/7]

# output
1: 38; 2: 53.1; 3: 42.4; 4: 42.5
